Tested on: E. coli TESEC Mtb Alr
Experiment: growth (OD600 after 10 h); higher = more growth (less inhibition)
Details: arabinose 10000 nM; compound 0.1 mM; raw OD600 reference: median of DMSO wells 0.264, cell-free background 0.041
Counter-ions that a name gives are not always drawn.
We use 0.2 as the dividing line for growth: on or above the line is Y, below is N.

[
  {
    "molecule": "COc1cc(N)c(Cl)cc1C(=O)NC1CCN(Cc2ccccc2)CC1 [Clebopride maleate]",
    "group_label": "Y"
  },
  {
    "molecule": "CN1CCN(CC(=O)N2c3ccccc3C(=O)Nc3cccnc32)CC1 [Pirenzepine dihydrochloride]",
    "group_label": "Y"
  },
  {
    "molecule": "OC(Cn1cncn1)(Cn1cncn1)c1ccc(F)cc1F [Fluconazole]",
    "group_label": "Y"
  },
  {
    "molecule": "Cc1cc2c(cc1S(N)(=O)=O)S(=O)(=O)CCC2 [Meticrane]",
    "group_label": "Y"
  },
  {
    "molecule": "Cc1c(Cl)cccc1Nc1ccccc1C(=O)O [Tolfenamic acid]",
    "group_label": "N"
  }
]

Hi, just wondering whether Cc1[nH]cnc1CN1CCc2c(c3ccccc3n2C)C1=O [Alosetron hydrochloride] shows growth of 0.2 or higher.
Y

Hi, just wondering whether Nc1ccc(O)c(C(=O)O)c1 [Mesalamine] shows growth of 0.2 or higher.
Y

Hi, just wondering whether CNc1ncnc2c1ncn2[C@@H]1O[C@H](CO)[C@@H](O)[C@H]1O [N6-methyladenosine] shows growth of 0.2 or higher.
Y

Hi, just wondering whether Cc1cnc(NC(=O)C2=C(O)c3ccccc3S(=O)(=O)N2C)s1 [Meloxicam] shows growth of 0.2 or higher.
Y

Hi, just wondering whether N[C@@H](C(=O)N[C@@H]1C(=O)N2C(C(=O)O)=C(Cl)CS[C@H]12)c1ccccc1 [Cefaclor hydrate] shows growth of 0.2 or higher.
Y

Hi, just wondering whether Nc1ccc(S(=O)(=O)c2ccc(N)cc2)cc1 [Dapsone] shows growth of 0.2 or higher.
Y

----------
Test system: E. coli TESEC Alr+ wild-type control
Experiment: growth (OD600 after 10 h); higher = more growth (less inhibition)
Conditions: compound 0.1 mM; raw OD600 reference: median of DMSO wells 0.241, cell-free background 0.041
Structures can show the parent of a compound that is named as a salt.
We use 0.2 as the dividing line for growth: on or above the line is Condition met, below is Condition not met.

[
  {
    "molecule": "C[n+]1ccccc1/C=N/O [Pralidoxime chloride]",
    "measurement_target": "E. coli TESEC Alr+ wild-type control",
    "group_label": "Condition met"
  },
  {
    "molecule": "NS(=O)(=O)c1cc2c(cc1Cl)N=C(CSCc1ccccc1)NS2(=O)=O [Benzthiazide]",
    "measurement_target": "E. coli TESEC Alr+ wild-type control",
    "group_label": "Condition met"
  },
  {
    "molecule": "CCc1c(C)[nH]c2c1C(=O)C(CN1CCOCC1)CC2 (centres undefined) [Molindone hydrochloride]",
    "measurement_target": "E. coli TESEC Alr+ wild-type control",
    "group_label": "Condition met"
  },
  {
    "molecule": "CC1CS(=O)(=O)CCN1/N=C/c1ccc([N+](=O)[O-])o1 (centres undefined)",
    "measurement_target": "E. coli TESEC Alr+ wild-type control",
    "group_label": "Condition not met"
  },
  {
    "molecule": "COc1cc(N)c(Cl)cc1C(=O)NC1CCN(Cc2ccccc2)CC1 [Clebopride maleate]",
    "measurement_target": "E. coli TESEC Alr+ wild-type control",
    "group_label": "Condition not met"
  }
]

Hi, just wondering whether COc1cccc2c1C(=O)c1c(O)c3c(c(O)c1C2=O)C[C@@](O)(C(C)=O)C[C@@H]3O[C@H]1C[C@H](N)[C@H](O)[C@H](C)O1 [Daunorubicin hydrochloride] shows growth of 0.2 or higher.
Condition not met

Hi, just wondering whether Cc1cccc(CN2CCN(C(c3ccccc3)c3ccc(Cl)cc3)CC2)c1 (centres undefined) [Meclozine dihydrochloride] shows growth of 0.2 or higher.
Condition met

Hi, just wondering whether Clc1ccc(CO/N=C(\Cn2ccnc2)c2ccc(Cl)cc2Cl)c(Cl)c1 [Oxiconazole Nitrate] shows growth of 0.2 or higher.
Condition not met

----------
System: E. coli TESEC Mtb Alr
Assay: growth (OD600 after 10 h); higher = more growth (less inhibition)
Details: arabinose 100000 nM; compound 0.1 mM; raw OD600 reference: median of DMSO wells 0.201, cell-free background 0.041
Structures can show the parent of a compound that is named as a salt.
We use 0.2 as the dividing line for growth: on or above the line is Fulfilled, below is Not fulfilled.

[
  {
    "compound": "CN1CCC[C@@H]1CCO[C@](C)(c1ccccc1)c1ccc(Cl)cc1 [Clemastine fumarate]",
    "measurement_target": "E. coli TESEC Mtb Alr",
    "group_label": "Not fulfilled"
  },
  {
    "compound": "O=C(NCCO[N+](=O)[O-])c1cccnc1",
    "measurement_target": "E. coli TESEC Mtb Alr",
    "group_label": "Fulfilled"
  },
  {
    "compound": "Nc1ncnc2c1ncn2C1OC(COP(=O)(O)O)C(O)C1O (centres undefined) [Adenosine 5'-monophosphate monohydrate]",
    "measurement_target": "E. coli TESEC Mtb Alr",
    "group_label": "Fulfilled"
  },
  {
    "compound": "O=c1[nH]cc(F)c(=O)[nH]1",
    "measurement_target": "E. coli TESEC Mtb Alr",
    "group_label": "Not fulfilled"
  },
  {
    "compound": "CC(N)C12CC3CC(CC(C3)C1)C2 (centres undefined) [Rimantadine Hydrochloride]",
    "measurement_target": "E. coli TESEC Mtb Alr",
    "group_label": "Fulfilled"
  },
  {
    "compound": "CCCc1nc2c(C)cc(-c3nc4ccccc4n3C)cc2n1Cc1ccc(-c2ccccc2C(=O)O)cc1",
    "measurement_target": "E. coli TESEC Mtb Alr",
    "group_label": "Not fulfilled"
  },
  {
    "compound": "CC12CC3CC(C)(C1)CC(N)(C3)C2 [Memantine Hydrochloride]",
    "measurement_target": "E. coli TESEC Mtb Alr",
    "group_label": "Not fulfilled"
  },
  {
    "compound": "Cn1cnc([N+](=O)[O-])c1Sc1ncnc2[nH]cnc12",
    "measurement_target": "E. coli TESEC Mtb Alr",
    "group_label": "Not fulfilled"
  }
]

Alright, here's another compound for you.
Hi, just wondering whether NS(=O)(=O)c1cc2c(cc1Cl)N=C(CSCc1ccccc1)NS2(=O)=O [Benzthiazide] shows growth of 0.2 or higher.
Not fulfilled

----------
Tested on: E. coli TESEC Mtb Alr
Experiment: growth (OD600 after 10 h); higher = more growth (less inhibition)
Details: arabinose 100000 nM; compound 0.1 mM; raw OD600 reference: median of DMSO wells 0.201, cell-free background 0.041
Where a name gives a salt, the structure may show the parent alone.
Each entry below carries its reported growth.
Provide a numeric answer; units are not to be included.

Here are 4 molecules together with their reported answers.
[
  {
    "molecule": "CNCCC(Oc1ccc(C(F)(F)F)cc1)c1ccccc1 (stereo not given) [Fluoxetine hydrochloride]",
    "readout_number": 0.0693
  },
  {
    "molecule": "CCCN(CCC)C(=O)C(CCC(=O)O)NC(=O)c1ccccc1 (stereo not given) [Proglumide]",
    "readout_number": 0.22
  },
  {
    "molecule": "COc1ccccc1OCCNCC(O)COc1cccc2[nH]c3ccccc3c12 (stereo not given) [Carvedilol]",
    "readout_number": 0.0419
  },
  {
    "molecule": "Nc1ccc(S(=O)(=O)Nc2nccs2)cc1 [Sulfathiazole]",
    "readout_number": 0.202
  }
]

Okay, now this molecule:
Bench note, E. coli TESEC Mtb Alr: entry Cc1c(N(C)CS(=O)(=O)O)c(=O)n(-c2ccccc2)n1C [Dipyrone] , its growth = 0.217

----------
Test system: E. coli TESEC Mtb Alr
Experiment: growth (OD600 after 10 h); higher = more growth (less inhibition)
Settings: arabinose 100 nM; compound 0.1 mM; raw OD600 reference: median of DMSO wells 0.413, cell-free background 0.052
Where a name gives a salt, the structure may show the parent alone.
observation_type: growth
Provide a numeric answer; units are not to be included.

Data point: CCCCC(C)(O)C/C=C/[C@H]1[C@H](O)CC(=O)[C@@H]1CCCCCCC(=O)OC (mixture of isomers) ; growth = 0.432

Data point: COc1cc(-c2ccc(=O)[nH]n2)ccc1OC(F)F ; growth = 0.401

Data point: C=CC[N@@+]12CC[C@@]34c5ccccc5N5/C=C6/[C@H]7C[C@H]8[C@@]9(CC[N@@+]8(CC=C)C/C7=C/CO)c7ccccc7N(/C=C(/[C@@H](C[C@@H]31)/C(=C\CO)C2)[C@H]54)[C@@H]69 [Alcuronium chloride] ; growth = 0.41

Data point: C=C1c2cccc(O)c2C(O)=C2C(=O)[C@]3(O)C(O)=C(C(N)=O)C(=O)[C@@H](N(C)C)[C@@H]3[C@@H](O)[C@H]12 [Methacycline hydrochloride] ; growth = 0.0587

Data point: CC(=O)Oc1ccccc1C(=O)Oc1ccccc1C(=O)O ; growth = 0.418

Data point: CCN1CCCC(OC(=O)C(c2ccccc2)c2ccccc2)C1 (configuration not stated) [Piperidolate hydrochloride] ; growth = 0.417

Data point: Oc1ccc(C2CNCCc3c2cc(O)c(O)c3Cl)cc1 (configuration not stated) ; growth = 0.104
